Each item that follows carries a reported EGFR activity (% Control, 1.0 μM drug) Assay 2 Del/T790M/L718Q.
# target_desc: EGFR Del/T790M/L718Q Ba/F3 cells (Homo sapiens, UniProt P00533, L718Q/T790M, cells depend on it, form not given)
# Format: cell-based
# setup_conditions: 1.0 μM drug; Assay 2

Worked cases, EGFR activity (% Control, 1.0 μM drug) Assay 2 Del/T790M/L718Q given:
molecule	recorded_value
C=CC(=O)Nc1ccc(OC)c(N(C(=O)Nc2c(C)cccc2C)c2cc(Nc3ccc(N4CCN(CC)CC4)cc3)ncn2)c1 [Compound 8A]	93 % Control
C=CC(=O)Nc1cccc(N(C(=O)Nc2ccccc2)c2cc(Nc3ccc(N4CCN(C)CC4)cc3OC)ncn2)c1 [Compound 1A]	83 % Control
C=CC(=O)Nc1cccc(N(C(=O)NCc2ccccc2)c2cc(Nc3ccc(N4CCN(C)CC4)cc3OC)ncn2)c1 [Compound 3A]	86 % Control
C=CC(=O)Nc1ccc(OC)c(Nc2cc(N(C(=O)Nc3c(C)cccc3C)c3ccc(N4CCN(CC)CC4)cc3)ncn2)c1 [Compound 9A]	86 % Control

[in] Endpoint output: EGFR activity (% Control, 1.0 μM drug) Assay 2 Del/T790M/L718Q of C=CC(=O)Nc1cccc(N(C(=O)Oc2ccccc2)c2ccnc(Nc3ccc(N4CCN(C)CC4)cc3OC)n2)c1 [Compound 10A] . Value?
[out] 84 % Control

[in] Given C=CC(=O)Nc1cccc(N(C(=O)Nc2ccccc2Cl)c2cc(Nc3ccc(N4CCN(C)CC4)cc3OC)ncn2)c1 [Compound 11A] , state its recorded EGFR activity (% Control, 1.0 μM drug) Assay 2 Del/T790M/L718Q.
[out] 82 % Control

###

# target_desc: Ba/F3 TEL-ABL (Homo sapiens, UniProt P00519)
# Sequence (P00519 whole entry, looked up, change not shown): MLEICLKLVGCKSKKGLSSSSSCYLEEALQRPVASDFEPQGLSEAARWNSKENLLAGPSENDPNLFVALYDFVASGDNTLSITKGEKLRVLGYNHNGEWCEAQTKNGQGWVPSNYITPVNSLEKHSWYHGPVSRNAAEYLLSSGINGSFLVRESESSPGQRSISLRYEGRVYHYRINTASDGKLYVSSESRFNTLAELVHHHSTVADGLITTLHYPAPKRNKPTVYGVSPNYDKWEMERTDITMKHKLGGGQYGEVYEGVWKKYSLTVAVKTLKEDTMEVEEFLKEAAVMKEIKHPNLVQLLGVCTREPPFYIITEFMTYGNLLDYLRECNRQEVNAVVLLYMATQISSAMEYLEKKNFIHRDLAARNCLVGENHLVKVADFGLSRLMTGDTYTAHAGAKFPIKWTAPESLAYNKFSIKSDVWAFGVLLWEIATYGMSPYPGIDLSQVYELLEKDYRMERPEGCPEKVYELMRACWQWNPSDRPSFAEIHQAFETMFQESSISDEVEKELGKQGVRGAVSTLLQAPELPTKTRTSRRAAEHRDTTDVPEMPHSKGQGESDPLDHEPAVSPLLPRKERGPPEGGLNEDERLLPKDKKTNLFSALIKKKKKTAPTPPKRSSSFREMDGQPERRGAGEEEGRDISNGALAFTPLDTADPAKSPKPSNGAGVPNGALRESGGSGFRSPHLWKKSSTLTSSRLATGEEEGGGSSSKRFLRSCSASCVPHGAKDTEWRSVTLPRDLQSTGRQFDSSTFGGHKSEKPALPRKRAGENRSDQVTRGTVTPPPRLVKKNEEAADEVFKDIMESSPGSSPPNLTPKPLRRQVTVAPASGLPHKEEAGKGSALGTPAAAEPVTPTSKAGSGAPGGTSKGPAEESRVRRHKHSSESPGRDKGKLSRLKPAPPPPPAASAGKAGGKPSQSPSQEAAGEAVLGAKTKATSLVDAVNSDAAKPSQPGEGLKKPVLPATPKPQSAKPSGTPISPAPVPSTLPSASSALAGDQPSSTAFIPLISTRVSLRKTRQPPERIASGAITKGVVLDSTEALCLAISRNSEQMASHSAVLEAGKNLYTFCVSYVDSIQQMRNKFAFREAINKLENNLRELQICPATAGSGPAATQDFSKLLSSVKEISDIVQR
# procedure_summary: Inhibition of Ba/F3 TEL-ABL cell line
# Type: cell-based
# setup_conditions: read-out: IC50 (μM) Ba/F3 TEL-ABL
measured_metric: IC50
Please answer using a numeric value trailed by its unit.

Example entries and their recorded answers appear below.
molecule	IC50
C=CC(=O)Nc1cccc(N(C(=O)OCc2ccccc2)c2ccnc(Nc3cnn(CCN4CCOCC4)c3)n2)c1 [Compound 85A]	16.1 µM
C=CC(=O)Nc1cccc(N(C(=O)OCc2ccccc2)c2ccnc(Nc3cnn(C4CCOCC4)c3)n2)c1 [Compound 84A]	11.3 µM

In the following, a different molecule is considered.
[in] // IC50 lookup, key: C=CC(=O)Nc1cccc(N(C(=O)OCc2ccccc2)c2ccnc(Nc3cnn(C)c3)n2)c1 [Compound 83A]
[out] 16.7 µM

###

# target_desc: EGFR L858R/T790M/L718Q Ba/F3 cells (Homo sapiens (Human), UniProt P00533, L718Q/L858R/T790M)
# procedure_summary: Ba/F3 cell growth inhibition (MTS assay), EGFR L858R/T790M/L718Q
# Type: cell-based
# setup_conditions: Assay 1; T/L/L718Q; read-out: EGFR Ba/F3 cells IC 50 (nM) Assay 1 T/L/L718Q
measured_metric: IC50 (nM)
Enter your answer as a number in nM; do not include the unit.

compound	measured_metric	recorded_value
C=CC(=O)Nc1cccc(N(C(=O)OCc2ccccc2)c2ccnc(Nc3ccc(N4CCN(C)CC4)cc3OC)n2)c1 [Compound 4A]	IC50	293
C=CC(=O)Nc1cccc(Nc2cc(N(C)C(=O)NCc3ccccc3)ncn2)c1 [Compound 17A]	IC50	2500
C=CC(=O)Nc1cccc(N(C(=O)NCc2ccccc2)c2cc(Nc3ccc(N4CCN(C)CC4)cc3OC)nc(Cl)n2)c1 [Compound 78A]	IC50	2240

Here is the next item to consider.
[in] Which IC50 is listed for C=CC(=O)Nc1cccc(N(C(=O)N[C@@H](C)c2ccccc2)c2cc(Nc3ccc(N4CCN(C)CC4)cc3OC)ncn2)c1 [Compound 34A] ?
[out] 312

###

# target_desc: EGFR Del/T790M Ba/F3 cells (Homo sapiens, UniProt P00533, T790M, cells depend on it, form not given)
# procedure_summary: Ba/F3 cell growth inhibition (MTS assay), EGFR Del/T790M
# Type: cell-based
# setup_conditions: Assay 1; Del/T790M; read-out: EGFR Ba/F3 cells IC 50 (nM) Assay 1 Del/T790M
# Protocol: The specific cDNAs encoding the oncogenic alterations (EGFR: Del 19, L858R, L718Q, L844V, Del/T790M, L858R/T790M, Del 19/L718Q, Del 19/L844V, Del 19/T790M/L718Q and L858R/T790M/L718Q; FGFR: TEL-FGFR1, TEL-FGFR2, TEL-FGFR1 V561M, TEL-FGFR2 V561M; ALK: EML4-ALK; ROS1: CD74-ROS1) were cloned into the pDNA-Dual (BD Biosciences) vector using standard molecular biology techniques. […] Growth and inhibition of growth was assessed by MTS assay. […]
Each entry below carries its recorded IC50.
Value expressed in nM; do not type the unit.

compound	IC50 [nM]
C=CC(=O)Nc1cccc(N(C(=O)N[C@@H](C)c2ccccc2)c2cc(Nc3ccc(N4CCN(C)CC4)cc3OC)ncn2)c1 [Compound 34A]	60.4
C=CC(=O)Nc1cccc(N(C(=O)OCc2ccccc2)c2ccnc(Nc3ccc(N4CCN(C)CC4)cc3OC)n2)c1	17.3
C=CC(=O)Nc1cccc(N(C(=O)NCc2ccccc2)c2cc(NC)ncn2)c1 [Compound 15A]	842

Shifting focus to the compound that follows.
[in] Recorded IC50 of C=CC(=O)Nc1cccc(N(C(=O)NCc2cccs2)c2cc(Nc3ccc(N4CCOCC4)cc3OC)ncn2)c1 [Compound 55A] , please.
[out] 15.9

###

EGFR activity (% Control, 100 nM drug) L858R/T790M for assorted molecules
# target_desc: EGFR L858R/T790M Ba/F3 cells (Homo sapiens (Human), UniProt P00533, L858R/T790M)
# procedure_summary: Ba/F3 cell growth inhibition (MTS assay), EGFR L858R/T790M
# Type: cell-based
# setup_conditions: 100 nM drug; Table G

molecule	recorded_value
COc1cc2ncnc(N(C)C(=O)Nc3ccccc3)c2cc1NC(=O)[C@@H]1CCCN1C(=O)CCl [Compound 28A]	97 % Control

[in] If you can, please state the reported EGFR activity (% Control, 100 nM drug) L858R/T790M value of C=CC(=O)Nc1cccc(N(C(=O)Nc2ccccc2)c2cc(Nc3ccc(N4CCN(C)CC4)cc3)ncn2)c1 [Compound 25A] .
[out] 24 % Control

[in] // returns reported EGFR activity (% Control, 100 nM drug) L858R/T790M for input C=CC(=O)N1CCC[C@H]1C(=O)Nc1cc2c(N(C)C(=O)NCc3ccccc3)ncnc2cc1OC [Compound 5A]
[out] 96 % Control

[in] Could you share which EGFR activity (% Control, 100 nM drug) L858R/T790M value was measured for C=CC(=O)N1CCC[C@@H]1C(=O)Nc1ccc(OC)c(Nc2cc(N(C)C(=O)NCc3ccccc3)ncn2)c1 [Compound 24A] ?
[out] 108 % Control

[in] I'd like to know its EGFR activity (% Control, 100 nM drug) L858R/T790M. The molecule in question is C=CC(=O)Nc1cccc(Oc2nc(Nc3ccc(N4CCN(C)CC4)cc3OC)ncc2Cl)c1 [WZ4002, reference compound]
[out] 30 % Control

[in] Please report the recorded EGFR activity (% Control, 100 nM drug) L858R/T790M for C=CC(=O)Nc1cccc(Nc2cc(N(C(=O)Nc3ccccc3)c3ccc(N4CCN(C)CC4)cc3)ncn2)c1 [Compound 26A] .
[out] 100 % Control

[in] Recorded EGFR activity (% Control, 100 nM drug) L858R/T790M for C=CC(=O)N1CCC[C@H]1C(=O)Nc1cc2c(N(C)C(=O)Nc3ccccc3)ncnc2cc1OC [Compound 27A] , please?
[out] 102 % Control

[in] Entry under review: C=CC(=O)N1CCC[C@H]1C(=O)Nc1cc2c(N(CCOC)C(=O)NCc3ccccc3)ncnc2cc1OC [Compound 31A] . Reported EGFR activity (% Control, 100 nM drug) L858R/T790M?
[out] 112 % Control

[in] Reported EGFR activity (% Control, 100 nM drug) L858R/T790M, molecule C=CC(=O)N1CCC[C@H]1C(=O)Nc1ccc(OC)c(Nc2cc(N(C)C(=O)NCc3ccccc3)ncn2)c1 [Compound 23A] : ____
[out] 111 % Control

[in] Field request: EGFR activity (% Control, 100 nM drug) L858R/T790M | item: C=CC(=O)N1CC[C@H](CN(C(=O)Nc2ccccc2)c2cc(Nc3ccc(N4CCN(C)CC4)cc3OC)ncn2)C1 [Compound 33A]
[out] 106 % Control

[in] Please give the measured EGFR activity (% Control, 100 nM drug) L858R/T790M for this molecule: C=CC(=O)Nc1cccc(N(C(=O)NCc2ccccc2)c2cc(Nc3ccc(N4CCN(C)CC4)cc3)ncn2)c1 [Compound 29A]
[out] 13 % Control

[in] Query (molecule): C=CC(=O)Nc1cccc(Nc2cc(N(C(=O)NCc3ccccc3)c3ccc(N4CCN(C)CC4)cc3)ncn2)c1 [Compound 30A] ; field requested: EGFR activity (% Control, 100 nM drug) L858R/T790M
[out] 103 % Control

[in] Query: EGFR activity (% Control, 100 nM drug) L858R/T790M; subject: C=CC(=O)N1CC[C@@H](CN(C(=O)Nc2ccccc2)c2cc(Nc3ccc(N4CCN(C)CC4)cc3OC)ncn2)C1 [Compound 32A]
[out] 110 % Control
